measurement-type: melting point

Consider the reported melting point for these molecules:
[[record]]
molecule = "CC(C)CCCOc1c(Br)cc(CCNC(=O)c2cc(Cl)cc(Cl)c2)cc1Br [Compound 33]"
val = "107.5 to 109 °C"

[[record]]
molecule = "CNCCCOc1c(Br)cc(CCNC(=O)c2cc(Cl)c(OC)c(Cl)c2)cc1Br [Compound 45]"
val = "86 to 97 °C"

[[record]]
molecule = "CC(C)CCCOc1c(Br)cc(CCNC(=O)c2cc(Br)cc(Br)c2)cc1Br [Compound 32]"
val = "123 to 124 °C"

[[record]]
molecule = "COc1c(F)cc(C(=O)NCCc2cc(Br)c(CCCN(C)C)c(Br)c2)cc1F [Compound 28]"
val = "93 to 96 °C"


Now look at this one.
In: Let me know recorded melting point for CN(C)CCCOc1c(Br)cc(CCNC(=O)c2ccccc2F)cc1Br [Compound 19] , thanks.
Out: 70 to 72 °C

###

Overview of reported inhibition at 40 µM across a group of compounds:
target: hKV10.1a (Homo sapiens); construct: expressed in transfected cells; host or cells: Xenopus laevis oocytes injected with cRNA transcribed from the hKV10.1a-pSGEM plasmid; assay: Two-electrode voltage-clamp recordings of KV10.1 currents in Xenopus laevis oocytes; type: cell-based; details: 40 μM, extracellular perfusion; average ± SEM; read-out: KV10.1 current inhibition
Sequence (O95259 1-962 isoform O95259-2): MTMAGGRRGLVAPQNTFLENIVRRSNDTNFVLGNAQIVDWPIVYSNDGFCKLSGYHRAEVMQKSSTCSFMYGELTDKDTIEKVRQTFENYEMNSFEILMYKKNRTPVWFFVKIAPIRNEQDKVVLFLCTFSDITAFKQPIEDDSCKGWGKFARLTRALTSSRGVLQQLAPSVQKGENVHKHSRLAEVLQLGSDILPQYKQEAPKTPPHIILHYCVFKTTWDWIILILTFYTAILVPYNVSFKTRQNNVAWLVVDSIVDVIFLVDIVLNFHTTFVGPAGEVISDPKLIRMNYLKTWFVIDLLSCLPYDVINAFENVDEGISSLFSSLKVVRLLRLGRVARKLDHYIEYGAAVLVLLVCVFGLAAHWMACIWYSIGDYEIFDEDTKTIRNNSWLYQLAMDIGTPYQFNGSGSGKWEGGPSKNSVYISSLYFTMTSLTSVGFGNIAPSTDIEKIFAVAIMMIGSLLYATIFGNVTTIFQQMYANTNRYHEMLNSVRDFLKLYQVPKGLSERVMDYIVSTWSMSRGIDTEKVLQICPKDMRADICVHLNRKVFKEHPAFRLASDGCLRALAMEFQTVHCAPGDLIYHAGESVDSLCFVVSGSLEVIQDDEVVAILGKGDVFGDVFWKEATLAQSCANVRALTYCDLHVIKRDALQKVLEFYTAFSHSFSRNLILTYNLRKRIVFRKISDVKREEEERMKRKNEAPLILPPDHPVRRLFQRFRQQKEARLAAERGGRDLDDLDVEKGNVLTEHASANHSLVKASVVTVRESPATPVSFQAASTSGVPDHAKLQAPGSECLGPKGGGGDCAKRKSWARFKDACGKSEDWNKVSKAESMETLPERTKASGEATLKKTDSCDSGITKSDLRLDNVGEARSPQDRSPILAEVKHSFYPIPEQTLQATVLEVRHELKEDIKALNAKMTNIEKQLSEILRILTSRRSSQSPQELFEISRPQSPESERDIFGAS
# number only, unit % dropped from output

[[record]]
molecule_smiles = "CN(C)CCCOc1c(Br)cc(CCNC(=O)c2ccccc2Br)cc1Br"
assayed_target = "hKV10.1a (Homo sapiens)"
val = 27

[[record]]
molecule_smiles = "CN(C)CCCOc1c(Br)cc(CCNC(=O)c2ccccc2F)cc1Br"
assayed_target = "hKV10.1a (Homo sapiens)"
val = 32


In: Let me know recorded inhibition at 40 µM for `CC(C)CCCOc1c(Br)cc(CCNC(=O)c2cc(Br)cc(Br)c2)cc1Br` , thanks.
Out: 0

In: Let me know recorded inhibition at 40 µM for `CN(C)CCCOc1ccc(CCNC(=O)c2cc(Cl)cc(Cl)c2)cc1` , thanks.
Out: 4

In: Let me know recorded inhibition at 40 µM for `COc1ccc(C(=O)NCCc2cc(Br)c(OCCCN(C)C)c(Br)c2)cc1OC` , thanks.
Out: 44
